Reported Human Primary Hepatocyte Editing % 2500 is given for each of the following molecules.
# Test system: PCSK9 gene
# EXPERIMENT: PCSK9 gRNA/SpCas9 editing in primary human hepatocytes (Tables 2, 4)
# Assay type: cell-based
# STATED CONDITIONS: 2500 ng/RNA/mL; SpCas9 mRNA MS002 1:1 by weight
In the oligonucleotide strings, read from the 5' end, every base follows the letter of its sugar. An asterisk marks phosphorothioate; unmarked linkages are phosphodiester. Other units and linkages are bracketed, terminal groups are in braces. A string of capitals states the bases alone. m = 2'-O-methyl; r = 2'-OH (RNA)
A bare number is not enough; add the unit after it.

Example results:
| MOLECULE | Human Primary Hepatocyte Editing % 2500 |
| --- | --- |
| GA178: PCSK9 gRNA; protospacer CTCCTTCAGCACCACCACGT (SEQ ID NO: 172) (nucleic acid) guide: mC*mU*mC*rCrUrUrCrArGrCrArCrCrArCrCrArCrGrUrGrUrUrUrUrArGrArGrCrUrArGrArArArUrArGrCrArArGrUrUrArArArArUrArArGrGrCrUrArGrUrCrCrGrUrUrArUrCrArArCrUrUrGrArArArArArGrUrGrGrCrArCrCrGrArGrUrCrGrGrUrGrCrU*mU*mU*mU | 18.29% |
| GA217: PCSK9 gRNA; protospacer GTGGTCAGCGGCCGGGATGC (SEQ ID NO: 211) (nucleic acid, sugars from the 5' end m3 r94 m3, linkages s3 o93 s3 (s phosphorothioate, o phosphodiester), T or U not given here) guide: GUGGUCAGCGGCCGGGAUGCGUUUUAGAGCUAGAAAUAGCAAGUUAAAAUAAGGCUAGUCCGUUAUCAACUUGAAAAAGUGGCACCGAGUCGGUGCUUUU | 15.31% |

# context switch: different molecule, same Human Primary Hepatocyte Editing % 2500
Provide Human Primary Hepatocyte Editing % 2500 value for the following molecule: GA202: PCSK9 gRNA; protospacer AAGCGGGTCCCGTCCTCCTC (SEQ ID NO: 196) (nucleic acid, sugars from the 5' end m3 r94 m3, linkages s3 o93 s3 (s phosphorothioate, o phosphodiester), T or U not given here) guide: AAGCGGGUCCCGUCCUCCUCGUUUUAGAGCUAGAAAUAGCAAGUUAAAAUAAGGCUAGUCCGUUAUCAACUUGAAAAAGUGGCACCGAGUCGGUGCUUUU 34.75%
